# assay-comment: Dielectric constants of sunscreen ingredients at 25° C.
# Type: physicochemical
# experimental-conditions: neat ingredient
Record form. Attribute: Dielectric Constant at 25° C. (ε). Fill in for each entry.

Study these solved cases before continuing.
INSERT INTO measurements (compound, measurement) VALUES
  ('CCCCCCCCCCCCCCCC(=O)OC(C)C [Isopropyl palmitate]', 3.20),
  ('CCCCCCCCCCCCCC(=O)OC(C)C [Isopropyl myristate]', 3.24),
  ('CCCCCCC(CCCC)COC(=O)CC(O)C(=O)OCC(CCCC)CCCCCC (stereo not drawn) [Dibutyloctyl malate, bis(2-butyloctyl)malate]', 4.65),
  ('CCCCC(CC)COC(=O)c1ccc2cc(C(=O)OCC(CC)CCCC)ccc2c1 (stereo not drawn) [Diethylhexyl 2,6-naphthalate]', 4.34),
  ('CCCCCCCCCCCCCCCCCC(C)C [Isoeicosane]', 2.04);

The record that follows has no Dielectric Constant at 25° C. (ε) shown yet.
// fetch Dielectric Constant at 25° C. (ε) given entry CCCCCCCCCCCCCCCC(=O)OCC(CC)CCCC (stereo not drawn) [Ethylhexyl palmitate]
3.06

* * *

I'd be grateful if you could share measured Solvency for Oxybenzone for these entries.
# assay-comment: Solvency testing of solvents for oxybenzone
# Assay type: physicochemical
# experimental-conditions: solute oxybenzone dissolved in the named solvent
Numbers only, in % wt. %.

Guide cases for Solvency for Oxybenzone, answers given:
INSERT INTO results (compound, measurement) VALUES
  ('CCCCC(CC)COC(=O)C=Cc1ccc(OC)cc1 (stereo not drawn) [Ethylhexyl methoxycinnamate, 2-ethylhexyl paramethoxycinnamate, reference compound]', 24),
  ('CCCCC(CC)COC(=O)CCCCC(=O)OCC(CC)CCCC (stereo not drawn) [Diethylhexyl adipate]', 20),
  ('CCCCC(CC)COC(=O)C(C#N)=C(c1ccccc1)c1ccccc1 (stereo not drawn) [Octocrylene, reference compound]', 32);

Hey, quick one: what's Solvency for Oxybenzone for each of these?
1. CCCCC(CC)COC(=O)c1ccccc1O (stereo not drawn) [Ethylhexyl salicylate, 2-ethylhexyl salicylate, reference compound]
2. CCCCCCCCCCCCCC(=O)OC(C)C [Isopropyl myristate]
3. CCCCCCCCCC(=O)N(C)C [N,N-dimethyldecanamide]

18
20
38

* * *

# assay-comment: Solvency testing of solvents for octyl triazone
# Assay type: physicochemical
# experimental-conditions: solute octyl triazone dissolved in the named solvent
property-label: Solvency for Octyl triazone (% wt. %)
Answers are plain numbers, in % wt. %.

Record excerpt, results attached:
INSERT INTO results (compound, measurement) VALUES
  ('CCCCCCCCCC(=O)N(C)C [N,N-dimethyldecanamide]', 37),
  ('CCCCC(CC)COC(=O)C=Cc1ccc(OC)cc1 (stereo not drawn) [Ethylhexyl methoxycinnamate, 2-ethylhexyl paramethoxycinnamate, reference compound]', 15),
  ('CCCCC(CC)COC(=O)c1ccccc1O (stereo not drawn) [Ethylhexyl salicylate, 2-ethylhexyl salicylate, reference compound]', 5);

Now let's try a different one.
Provide Solvency for Octyl triazone value for the following compound: CCCCC(CC)COC(=O)C(C#N)=C(c1ccccc1)c1ccccc1 (stereo not drawn) [Octocrylene, reference compound]
1

* * *

# assay-comment: Solvency testing of solvents for avobenzone
# Assay type: physicochemical
# experimental-conditions: solute avobenzone dissolved in the named solvent
I'd appreciate it if you could supply Solvency for Avobenzone values for the items below.
Give bare numbers, in % wt. %.

# example entries with known answers
INSERT INTO assay_data (molecule, property_label, units, measurement) VALUES
  ('CCCCC(CC)COC(=O)C(C#N)=C(c1ccccc1)c1ccccc1 (stereo not drawn) [Octocrylene, reference compound]', 'Solvency for Avobenzone', '% wt. %', 27),
  ('CCCCCCCCCC(=O)N(C)C [N,N-dimethyldecanamide]', 'Solvency for Avobenzone', '% wt. %', 37),
  ('CCCCCCCCCCCCCC(=O)OC(C)C [Isopropyl myristate]', 'Solvency for Avobenzone', '% wt. %', 15),
  ('CCCCC(CC)COC(=O)C=Cc1ccc(OC)cc1 (stereo not drawn) [Ethylhexyl methoxycinnamate, 2-ethylhexyl paramethoxycinnamate, reference compound]', 'Solvency for Avobenzone', '% wt. %', 17),
  ('CCCCC(CC)COC(=O)c1ccccc1O (stereo not drawn) [Ethylhexyl salicylate, 2-ethylhexyl salicylate, reference compound]', 'Solvency for Avobenzone', '% wt. %', 16);

# next molecule below
Provide Solvency for Avobenzone value for the following molecule: CCCCC(CC)COC(=O)CCCCC(=O)OCC(CC)CCCC (stereo not drawn) [Diethylhexyl adipate]
10

* * *

# assay-comment: Dielectric constants of sunscreen ingredients at 25° C.
# Format: physicochemical
# experimental-conditions: neat ingredient
property-label: Dielectric Constant at 25° C. (ε)

INSERT INTO assay_data (compound, measurement) VALUES
  ('CC(C)CCOC(=O)CC(O)C(=O)OCCC(C)C (centres unmarked) [Diisoamyl malate]', 7.42),
  ('CCCCC(CC)COC(=O)c1ccccc1O (centres unmarked) [Ethylhexyl salicylate, 2-ethylhexyl salicylate, reference compound]', 6.20),
  ('CCCCCCCCCCCCCCCCCC(=O)OCC(CC)CCCC (centres unmarked) [Ethylhexyl stearate]', 3.05),
  ('CCCCC(CC)COC(=O)C(C#N)=C(c1ccccc1)c1ccccc1 (centres unmarked) [Octocrylene, reference compound]', 11.08),
  ('O', 80),
  ('CCCCC(CC)COC(=O)CCCCC(=O)OCC(CC)CCCC (centres unmarked) [Diethylhexyl adipate]', 4.21),
  ('CCCCC(CC)COC(=O)C=Cc1ccc(OC)cc1 (centres unmarked) [Ethylhexyl methoxycinnamate, 2-ethylhexyl paramethoxycinnamate, reference compound]', 5.98);

// next entry
Return the recorded Dielectric Constant at 25° C. (ε) value; entry: CCCCCCCCCC(=O)N(C)C [N,N-dimethyldecanamide]
12.43

Attribution: patent US6485713B1
